# System: GN52 Acinetobacter baumannii levofloxacin resistant clinical isolate
# METHOD: Chequerboard synergy with polymyxin B, FICI (Example 6)
# Type: cell-based
# RECORDED CONDITIONS: in combination with polymyxin B
QUANTITY KIND: Combination drug concentration in combination (mg/L)

COMPOUND: Cc1c(-c2ccc(N)nc2)ccn2c(=O)c(C(=O)O)cc(C3CC3)c12 [Compound 33]
ASSAYED TARGET: GN52 Acinetobacter baumannii levofloxacin resistant clinical isolate
OBSERVED RESULT: 1
//
COMPOUND: Cc1c(-c2cc(F)c(N)cc2F)ccn2c(=O)c(C(=O)O)cc(C3CC3)c12 [Compound 2]
ASSAYED TARGET: GN52 Acinetobacter baumannii levofloxacin resistant clinical isolate
OBSERVED RESULT: 1
//
COMPOUND: C[C@H]1COc2c(N3CCN(C)CC3)c(F)cc3c(=O)c(C(=O)O)cn1c23 [Levofloxacin, reference compound]
ASSAYED TARGET: GN52 Acinetobacter baumannii levofloxacin resistant clinical isolate
OBSERVED RESULT: 1
//
COMPOUND: Cc1c(-c2ccc3[nH]ncc3c2)ccn2c(=O)c(C(=O)O)cc(C3CC3)c12 [Compound 35]
ASSAYED TARGET: GN52 Acinetobacter baumannii levofloxacin resistant clinical isolate
OBSERVED RESULT: 0.5
